Give measured pIC50 for each item. Keep answers brief.
test: DPPH radical-scavenging assay; conditions: 100 μM DPPH in ethanol, 30 min at room temperature in the dark, absorbance 517 nm; mean ± SD
Would you please state pIC50, meaning minus log10 of the concentration in mol/L, as a bare number?

In: Would you mind telling me what pIC50 value was observed for `C=C(C)[C@@H]1CCC(C)=C[C@H]1c1c(OC)cc(CCCCC)c(/C=N/NC(N)=S)c1OC` ?
Out: 3.50

In: Would you mind telling me what pIC50 value was observed for `C=C(C)[C@@H]1CCC(C)=C[C@H]1c1c(O)cc(CCCCC)c(/C=N/NC(=S)Nc2ccccc2)c1O` ?
Out: 4.24

In: Would you mind telling me what pIC50 value was observed for Cc1c(C)c2c(c(C)c1O)CCC(C)(C(=O)O)O2 (stereo not shown) [trolox, reference compound] ?
Out: 4.26

In: Would you mind telling me what pIC50 value was observed for `C=C(C)[C@@H]1CCC(C)=C[C@H]1c1c(O)cc(CCCCC)c(/C=N/NC(N)=S)c1O` ?
Out: 4.27

In: Would you mind telling me what pIC50 value was observed for `C=C(C)[C@@H]1CCC(C)=C[C@H]1c1c(O)cc(CCCCC)c(/C=N/NC(=S)N(C)C)c1O` ?
Out: 3.94

In: Would you mind telling me what pIC50 value was observed for `C=C(C)[C@@H]1CCC(C)=C[C@H]1c1c(O)cc(CCCCC)c(/C=N/NC(=S)NC)c1O` ?
Out: 4.20

In: Would you mind telling me what pIC50 value was observed for `C=C(C)[C@@H]1CCC(C)=C[C@H]1c1c(O)cc(CCCCC)cc1O` ?
Out: 3.30

----------
Test system: mushroom TYR
Assay: Fluorescence quenching assay of TYR
Assay type: binding, Agaricus bisporus
Settings: static quenching, double-log equation; 310 K
Procedure: The fluorescence quenching spectra were recorded with an excitation wavelength (λex = 280 nm) and excitation and emission slit widths of 5 nm. […] After incubating at 37 °C for 20 min, the fluorescence spectrum was recorded at an emission range from 315 to 415 nm. Fluorescence quenching is described by the Stern–Volmer equation [69]: F0/F=1+Kqτ0[Q]=1+ksv[Q] […]
Give measured ka (binding constant) for each item. Keep answers brief.
Write it as a number; the unit M⁻¹ goes unstated.

In: Would you mind telling me what ka (binding constant) value was observed for `C=C(C)[C@@H]1CCC(C)=C[C@H]1c1c(O)cc(CCCCC)c(/C=N/NC(N)=S)c1O` ?
Out: 12100

In: Would you mind telling me what ka (binding constant) value was observed for `C=C(C)[C@@H]1CCC(C)=C[C@H]1c1c(O)cc(CCCCC)c(/C=N/NC(=S)N(C)C)c1O` ?
Out: 5200

In: Would you mind telling me what ka (binding constant) value was observed for `C=C(C)[C@@H]1CCC(C)=C[C@H]1c1c(OC)cc(CCCCC)c(/C=N/NC(N)=S)c1OC` ?
Out: 13100

In: Would you mind telling me what ka (binding constant) value was observed for `C=C(C)[C@@H]1CCC(C)=C[C@H]1c1c(O)cc(CCCCC)c(/C=N/NC(=S)Nc2ccccc2)c1O` ?
Out: 25500

In: Would you mind telling me what ka (binding constant) value was observed for `C=C(C)[C@@H]1CCC(C)=C[C@H]1c1c(O)cc(CCCCC)c(/C=N/NC(=S)NC)c1O` ?
Out: 8700

Sourced from paper PMC11944387
